Test system: YCC11
Test: Cell viability drug screen, 12-point dose-response AUC
Assay type: cell-based, human
Details: YCC11 cells; 72 hours; 12-point dose-response
Protocol: An FDA-approved small-molecule pharmacological compound (#L1300) and an anticancer compound for research (#L2000) were purchased from Selecckchem and a 10 mM solution was prepared in DMSO. […] Cells cultured for cell-based drug assay were inoculated into a 96-well white optical plate (Corning) at 5×10^3 cells per well. […] The final drug concentration in the 5 ns range and the DMSO specification control (0.5%) were calculated. […]
Label scheme for area under the viability curve (AUC), normalized: band 1 = under -1, band 2 = from -1 up to -0.7, band 3 = -0.7 and over

compound: Nc1cc(C(F)(F)F)c(-c2cc(N3CCOCC3)nc(N3CCOCC3)n2)cn1 [BKM120]
measured target: YCC11
category: band 1

compound: CN(C)c1ccc(C(=C2C=CC(=[N+](C)C)C=C2)c2ccc(N(C)C)cc2)cc1 [Crystal Violet, Crystal violet]
measured target: YCC11
category: band 2

# ---- query compound ----
Could you tell me which band CC(C)C[C@H](NC(=O)[C@H](Cc1ccccc1)NC(=O)c1cnccn1)B(O)O [Bortezomib (Velcade), Bortezomib] belongs to? band 3
